Some molecules, each annotated with its measured EC50.
- Experiment description: luciferase reporter signal suppression in cells – H4 neuroglioma cells, luminescence, dose response (AID 1990)
- Format: functional, cell-based
The source made the active and inactive calls.
Property label: EC50

[[record]]
molecular_string = "O=C(CN1CCN(S(=O)(=O)c2ccc3ccccc3c2)CC1)NC(=O)NC1CCCCC1"
reported_measurement = "13 µM (active)"

[[record]]
molecular_string = "Cc1ccc2nc(Cl)c(-c3ccccc3)cc2c1"
reported_measurement = "> 120 µM (not active)"

[[record]]
molecular_string = "Brc1ccc2c(c1)[C@H]1OCC[C@H]1[C@@H](c1cccs1)N2"
reported_measurement = "> 60 µM (not active)"

[[record]]
molecular_string = "Cc1cccc(CN2C(=O)/C(=C\\c3ccc(C(=O)NCCCN4CCN(C)CC4)cc3)Oc3ccccc32)c1"
reported_measurement = "10.6 µM (active)"

[[record]]
molecular_string = "COc1ccc(OCc2cccc(C(=O)O)c2)cc1"
reported_measurement = "0.305 µM (active)"

[[record]]
molecular_string = "COc1cc2ccccc2cc1C(=O)NNC(=O)c1ccccc1O"
reported_measurement = "> 60 µM (not active)"

[[record]]
molecular_string = "CC(C)COCc1ccc(O)c2ncccc12"
reported_measurement = "12.1 µM (active)"

[[record]]
molecular_string = "COc1ccc(C(=O)c2c(C(F)(F)F)oc3c2C(=O)c2ccccc2C3=O)cc1OC"
reported_measurement = "> 120 µM (not active)"


====

The entries below are paired with their reported EC50.
- Study system: Heat shock factor protein 1 (Mus musculus, UniProt P38532)
- Sequence (P38532 whole entry): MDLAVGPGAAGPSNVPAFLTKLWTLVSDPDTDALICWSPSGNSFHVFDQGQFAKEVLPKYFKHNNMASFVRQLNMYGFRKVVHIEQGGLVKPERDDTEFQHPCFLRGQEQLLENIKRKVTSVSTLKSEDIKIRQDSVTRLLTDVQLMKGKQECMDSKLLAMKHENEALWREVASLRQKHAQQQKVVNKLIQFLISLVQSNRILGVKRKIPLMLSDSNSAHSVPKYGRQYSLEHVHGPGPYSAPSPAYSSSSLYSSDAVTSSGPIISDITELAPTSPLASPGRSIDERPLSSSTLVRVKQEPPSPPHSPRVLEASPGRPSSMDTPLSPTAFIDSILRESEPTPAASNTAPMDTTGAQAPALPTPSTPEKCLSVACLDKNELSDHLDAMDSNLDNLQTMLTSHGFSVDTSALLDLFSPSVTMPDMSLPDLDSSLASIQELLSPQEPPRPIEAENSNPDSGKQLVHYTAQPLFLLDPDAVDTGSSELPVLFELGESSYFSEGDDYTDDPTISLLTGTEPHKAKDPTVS
- Experiment description: enhancement of HSF1-driven luciferase signal – cell-based, NIH3T3, luminescence, dose retest, confirmation (AID 435004);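 further: stress induced by proteasome inhibitor MG132 added 30 min after compound; luciferase reporter driven by HSF1 response element in NIH3T3 cells; actives raise luminescence as potentiators of the MG132 stress response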
- Type: functional
Calls of active or inactive are those of the source.
Property label: EC50

[[record]]
molecule = "O=C(Nc1ccn(Cc2ccccc2)n1)c1n[nH]c([N+](=O)[O-])c1Cl"
property_label = "EC50"
reported_measurement = "> 260 µM (inconclusive)"

[[record]]
molecule = "O=C(NC1C(=O)NNC1c1ccccc1)c1ccccc1 (stereo not given)"
property_label = "EC50"
reported_measurement = "246 µM (active)"

[[record]]
molecule = "O=C(CN1C(=O)NC(Cc2c[nH]c3ccccc23)C1=O)Nc1cccc(S(=O)(=O)N2CCOCC2)c1 (stereo not given)"
property_label = "EC50"
reported_measurement = "> 260 µM (inactive)"

[[record]]
molecule = "CC(C)[C@H](NC(N)=O)C(=O)NNC(=O)COc1cccc(C(F)(F)F)c1"
property_label = "EC50"
reported_measurement = "> 260 µM (inactive)"

[[record]]
molecule = "CCOC(=O)N1CCN(C(=O)c2cnc3n(c2=O)CCS3)CC1"
property_label = "EC50"
reported_measurement = "> 260 µM (inactive)"


====

- Study system: Glucose-6-phosphate 1-dehydrogenase (Homo sapiens)
- Sequence (P11413 whole entry): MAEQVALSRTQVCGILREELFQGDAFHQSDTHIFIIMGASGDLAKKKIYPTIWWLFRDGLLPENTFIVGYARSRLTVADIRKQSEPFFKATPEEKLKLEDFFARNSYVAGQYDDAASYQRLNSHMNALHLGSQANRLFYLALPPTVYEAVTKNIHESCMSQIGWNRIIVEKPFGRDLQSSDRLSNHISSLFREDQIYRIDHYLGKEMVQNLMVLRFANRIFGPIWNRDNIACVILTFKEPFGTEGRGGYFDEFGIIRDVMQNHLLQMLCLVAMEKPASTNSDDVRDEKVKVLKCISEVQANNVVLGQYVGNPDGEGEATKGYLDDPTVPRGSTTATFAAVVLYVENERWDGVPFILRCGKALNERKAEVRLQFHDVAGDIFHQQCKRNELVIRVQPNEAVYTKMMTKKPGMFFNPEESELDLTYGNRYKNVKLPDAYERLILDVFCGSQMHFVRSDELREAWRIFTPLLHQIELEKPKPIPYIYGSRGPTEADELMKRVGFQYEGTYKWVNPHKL
- Experiment description: inhibition of Homo sapiens G6PD, dose series – biochemical, fluorescence, selectivity assay for P. falciparum G6PD inhibitor project, dose response (AID 504792)
- Assay type: functional
Calls of active or inactive are those of the source.
Parameter IC50: see the listing below.
Property label: IC50

[[record]]
compound = "Nc1nc(O)nc(O)c1N=Cc1ccccc1"
property_label = "IC50"
reported_measurement = "63.8 µM (inactive)"

[[record]]
compound = "CCN(CC)CCn1c2ccccc2c(=O)c2c(O)ccc(O)c21"
property_label = "IC50"
reported_measurement = "64.6 µM (inactive)"

[[record]]
compound = "CCN1CCCC1CNC(=O)c1ccc2c(c1)NC(=O)/C(=C\\c1ccccc1Cl)S2 (configuration not stated)"
property_label = "IC50"
reported_measurement = "> 80 µM (inactive)"

[[record]]
compound = "C=CCN1C=C2C(=O)C(C)(OC(=O)CCC(=O)OC)C(=O)C(Br)=C2C=C1c1ccc(OC)cc1 (configuration not stated)"
property_label = "IC50"
reported_measurement = "29.9 µM (inactive)"

[[record]]
compound = "Cc1ccc(S(=O)(=O)NNc2ccccc2)cc1"
property_label = "IC50"
reported_measurement = "> 80 µM (inactive)"

[[record]]
compound = "COc1ccc(C(=O)c2c(C(F)(F)F)oc3c2C(=O)c2ccccc2C3=O)cc1OC"
property_label = "IC50"
reported_measurement = "> 80 µM (inactive)"

[[record]]
compound = "O=S(=O)(NCc1csc(-c2ccccc2)n1)c1ccc(Cl)s1"
property_label = "IC50"
reported_measurement = "> 80 µM (inactive)"

